Source listed as ChEMBL document CHEMBL3997837.

- protocol: Inhibition of Sporosarcina pasteurii CCM 2056 urease assessed as reduction in ammonia production by measuring initial state enzyme-inhibitor complex using urea as substrate measured for 120 mins by phenol-hypochlorite method
- experimental_conditions: read-out: Ki
Counter-ions that a name gives are not always drawn.
reported_property: pKi
Give bare numbers, as −log10 of the molar value.

Solved entries:
{"columns": ["compound", "test_result"],
 "data": [
  ["O=C1C=CCCC1", 4.64],
  ["C#CC(=O)O", 3.14],
  ["CC(=O)/C=C/C1=CC(=O)CCC1", 3.69],
  ["CCOC(=O)/C=C/C(=O)O [ETHYL FUMARATE]", 3.05]
]}

Hi! Can you tell me pKi for each of these compounds?
1. O=C(O)/C=C/C1=CC(=O)CCC1
2. COC(=O)/C=C/C1=CC(=O)CC1
3. O=C(O)/C=C/c1ccc([N+](=O)[O-])cc1

[reply]
1. 3.72
2. 4.78
3. 3.49

###

- protocol: Glutathione reactivity in pH 7.4 PBS measured after 6 to 36 hrs in presence of 1.375 mmol GSH by DTNB reagent based spectrophotometric method
Where a name gives a salt, the structure may show the parent alone.
Would you kindly list K for each of these compounds?
One number for each entry, in M⁻¹ s⁻¹.

Solved entries:
{"columns": ["compound", "K / M⁻¹ s⁻¹"],
 "data": [
  ["COC(=O)/C=C/C(=O)OC [DIMETHYL FUMARATE]", 2.62],
  ["O=C1C=CCCC1", 0.37],
  ["CCOC(=O)/C=C/c1ccccc1 [ETHYL CINNAMATE]", "1.21e-05"],
  ["COC(=O)C#CC(=O)OC", 6.47],
  ["COC(=O)/C=C/C1=CC(=O)CCC1", 0.0703]
]}

Hi! Can you tell me K for each of these compounds?
1. Cc1ccc(C(=O)/C=C/C(=O)O)cc1
2. O=C(O)C#CC(=O)O
3. O=C(O)/C=C/C(=O)O
4. O=C1C=CCC1
5. CCOC(=O)/C=C/C(=O)c1ccccc1
6. COC(=O)/C=C/C1=CC(=O)CC1

[reply]
1. 0.333
2. 0.000122
3. 5e-05
4. 0.487
5. 2.18
6. 0.166

###

- protocol: Cytotoxicity against mouse BALB/3T3 cells assessed as inhibition of cell proliferation at 100 uM after 72 hrs by SRB assay relative to control
- Format: cell-based
reported_property: inhibition at 72 h, 100 µM
Hey, just the number and the unit after it is fine.

{"columns": ["compound", "reported_property", "test_result"],
 "data": [
  ["Cc1ccc(C(=O)/C=C/C(=O)O)cc1", "inhibition at 72 h, 100 µM", "31.3%"]
]}

Hi! Can you tell me inhibition at 72 h, 100 µM for each of these compounds?
1. CCOC(=O)/C=C/c1ccccc1 [ETHYL CINNAMATE]
2. COC(=O)/C=C/C1=CC(=O)CC1
3. O=C1C=CCCC1

[reply]
1: 29.1%; 2: 35.2%; 3: 29.8%

###

- Test system: Sporosarcina pasteurii
- protocol: Reversible inhibition of Sporosarcina pasteurii CCM 2056 urease assessed as reduction in ammonia production by measuring recovery of enzyme activity at 10 times IC50 preincubated for 60 mins followed by 100-fold dilution in to PBS containing urea as substrate by Berthelot colorimetric assay relative to control
- Design: scale not given: the % may be the effect or the level left
Where a name gives a salt, the structure may show the parent alone.
Would you kindly list Activity for each of these compounds?
Give bare numbers, in %.

{"columns": ["compound", "Activity / %"],
 "data": [
  ["O=C1C=C(/C=C/C(=O)c2ccccc2)CCC1", 21.5],
  ["CCCCOC(=O)/C=C/C(=O)OCCCC", 45.1],
  ["COC(=O)/C=C/C1=CC(=O)CC1", 16.7],
  ["COC(=O)/C=C/C(=O)OC [DIMETHYL FUMARATE]", 36.8],
  ["O=C(O)C#Cc1ccccc1", 39.2],
  ["CCOC(=O)/C=C/C(=O)c1ccccc1", 30.2],
  ["CC(=O)NO [ACETOHYDROXAMIC ACID]", 29.1],
  ["C=C=CC(=O)OCC", 29.1]
]}

Hi! Can you tell me Activity for each of these compounds?
1. O=C1C=CCCC1
2. CC(C)OC(=O)/C=C/C(=O)OC(C)C
3. CCOC(=O)C#Cc1ccccc1
4. C#CC(=O)O

[reply]
[27.2, 41.2, 44.7, 40.9]
